Reference source for all entries: patent US20230159486A1

- Test details: Log P by HPLC on reversed phase columns (EEC directive 79/831 Annex V.A8)
- Type: physicochemical
- Description: In the above tables, measurement of Log P values was performed according to EEC directive 79/831 Annex V.A8 by HPLC (High Performance Liquid Chromatography) on reversed phase columns with the following methods: • ^[a] If more than one Log P value is available within the same method, all the values are given and separated by “+”. […]
Property name: LogP

[
  {
    "Molecule": "CCCCOC(=O)CNC(=O)c1sc(Cl)c(Cl)c1Cl",
    "Readout value": "4.18^[a]"
  },
  {
    "Molecule": "O=C(CNC(=O)c1sc(Cl)c(Cl)c1Cl)OCC1CC1",
    "Readout value": "3.81^[a]"
  },
  {
    "Molecule": "O=C(NC(C(=O)O)C1CC1)c1sc(Cl)c(Cl)c1Cl (racemic)",
    "Readout value": "2.83^[a]"
  },
  {
    "Molecule": "O=C(CNC(=O)c1sc(Cl)c(Cl)c1Cl)OC1CCC1",
    "Readout value": "3.87^[a]"
  },
  {
    "Molecule": "CCOC(=O)C(Cc1ccccc1)NC(=O)c1scc(Cl)c1Cl (racemic)",
    "Readout value": "3.99^[a]"
  },
  {
    "Molecule": "O=C(CNC(=O)c1sc(Cl)c(Cl)c1Cl)OCC(F)(F)F",
    "Readout value": "3.60^[a]"
  },
  {
    "Molecule": "O=C(CNC(=O)c1sc(Cl)c(Cl)c1Cl)Oc1ccccc1",
    "Readout value": "3.87^[a]"
  },
  {
    "Molecule": "CCOC(=O)C(CC(C)C)NC(=O)c1sc(Cl)c(Cl)c1Cl (racemic)",
    "Readout value": "5.22^[a]"
  },
  {
    "Molecule": "CCOC(=O)C1(NC(=O)c2scc(Cl)c2Cl)CC1",
    "Readout value": "2.59^[a]"
  },
  {
    "Molecule": "O=C(CNC(=O)c1sc(Cl)c(Cl)c1Cl)OC1CC1",
    "Readout value": "3.33^[a]"
  }
]
